# Species: Rattus norvegicus
# MEASUREMENT_DESCRIPTION: Open TG-GATES - Regimen: Daily Repeat
# Type: toxicity, organism-based, Sprague-Dawley
# Parameters: regimen Daily Repeat, gender Male, age 6 weeks
# CONDITION_LABEL: in vivo, po, 300 mg/kg, […], tissue Blood, route gavage, dose level Middle, time 14 day
QUANTITY_MEASURED: Fbg
Just the number plus its unit, please.

1. CCN1CCCC1CNC(=O)c1cc(S(N)(=O)=O)ccc1OC (centres undefined) [SULPIRIDE]: 295.2 mg/dL
2. CC(C)(S)[C@@H](N)C(=O)O: 375.6 mg/dL
3. O=C(N[C@H](CO)[C@H](O)c1ccc([N+](=O)[O-])cc1)C(Cl)Cl: 307 mg/dL

--- query ---
For "O=C(O)c1cccnc1" , what is its reported Fbg?
325.2 mg/dL

---

# Organism: Rattus norvegicus
# MEASUREMENT_DESCRIPTION: Open TG-GATES - Regimen: Daily Repeat
# Assay type: toxicity, organism-based, Sprague-Dawley
# Design: regimen Daily Repeat, gender Male, age 6 weeks
# CONDITION_LABEL: in vivo, po, 0 mg/kg, 72 h, tissue Blood, route gavage, dose level Control, time 3 day
QUANTITY_MEASURED: Hb (g/dL)
One number for each entry, in g/dL.

// below: answered compounds
1. CCc1oc2ccccc2c1C(=O)c1cc(I)c(O)c(I)c1: 14.1
2. O=C(O)c1cccnc1: 12.8
3. C[C@](N)(Cc1ccc(O)c(O)c1)C(=O)O: 13.1
4. CC(C)(S)[C@@H](N)C(=O)O: 13.7
5. CN1C(=O)OC(C)(C)C1=O: 13.7

For every item below, please supply its Hb.
1. CC(=N)S [THIOACETAMIDE]
2. O=C(N[C@H](CO)[C@H](O)c1ccc([N+](=O)[O-])cc1)C(Cl)Cl

1. 13.8
2. 13.1

For each entry beneath this line, provide reported Hb.
1. CC(C)C(=O)Nc1ccc([N+](=O)[O-])c(C(F)(F)F)c1 [FLUTAMIDE]
2. CCC(C)(C)C(=O)O[C@H]1C[C@@H](C)C=C2C=C[C@H](C)[C@H](CC[C@@H]3C[C@@H](O)CC(=O)O3)[C@H]21
3. Nc1nc(N)c2nc(-c3ccccc3)c(N)nc2n1

1. 13.9
2. 13.3
3. 13.8

---

Can you tell me TC for the items I'm about to list?
# Organism: Rattus norvegicus
# MEASUREMENT_DESCRIPTION: Open TG-GATES - Regimen: Daily Repeat
# Assay type: toxicity, organism-based, Sprague-Dawley
# Set-up: regimen Daily Repeat, gender Male, age 6 weeks
# CONDITION_LABEL: in vivo, po, 0 mg/kg, 72 h, tissue Plasma, route gavage, dose level Control, time 3 day
Answers are plain numbers, in mg/dL.

Record excerpt, results attached:
1) CC(C)C(=O)Nc1ccc([N+](=O)[O-])c(C(F)(F)F)c1 [FLUTAMIDE]: 76.2
2) C[C@]12CCC(=O)C=C1CC[C@@H]1[C@@H]2CC[C@@]2(C)[C@H]1CC[C@]2(C)O [METHYLTESTOSTERONE]: 77.8

Give TC for each of the items listed below.
1. Oc1ncnc2[nH]ncc12 [ALLOPURINOL]
2. CC(=O)Oc1cc(C(C)C)c(OCCN(C)C)cc1C [MOXISYLYTE]
3. CN1C(=O)OC(C)(C)C1=O [TRIMETHADIONE]
4. Nc1nc(N)c2nc(-c3ccccc3)c(N)nc2n1
5. CCN1CCCC1CNC(=O)c1cc(S(N)(=O)=O)ccc1OC (stereo unspecified) [SULPIRIDE]
6. C[C@](N)(Cc1ccc(O)c(O)c1)C(=O)O [METHYLDOPA]
7. CC(C)(S)[C@@H](N)C(=O)O [PENICILLAMINE]

1: 87.8; 2: 75.8; 3: 83.6; 4: 80.6; 5: 79.6; 6: 76.8; 7: 90.2

Here are 2 molecules. What values of TC were reported for them?
1. CC(=N)S [THIOACETAMIDE]
2. C#C[C@]1(O)CC[C@H]2[C@@H]3CCc4cc(O)ccc4[C@H]3CC[C@@]21C [ETHINYL ESTRADIOL]

1: 80.4; 2: 77.8

Report TC for every entry below.
1. CCc1oc2ccccc2c1C(=O)c1cc(I)c(O)c(I)c1 [BENZIODARONE]
2. CCSCC[C@H](N)C(=O)O [ETHIONINE]
3. O=C(O)c1cccnc1 [NIACIN]

75.4
74
80

For the 2 molecules below, give their TC values.
1. CCC(C)(C)C(=O)O[C@H]1C[C@@H](C)C=C2C=C[C@H](C)[C@H](CC[C@@H]3C[C@@H](O)CC(=O)O3)[C@H]21 [SIMVASTATIN]
2. O=C(N[C@H](CO)[C@H](O)c1ccc([N+](=O)[O-])cc1)C(Cl)Cl [CHLORAMPHENICOL]

1: 82.2; 2: 78.4

---

Provide the reported GLC of each item.
# Species on record: Rattus norvegicus
# MEASUREMENT_DESCRIPTION: Open TG-GATES - Regimen: Daily Repeat
# Format: toxicity, organism-based, Sprague-Dawley
# Parameters: regimen Daily Repeat, gender Male, age 6 weeks
# CONDITION_LABEL: in vivo, po, 1000 mg/kg, 72 h, tissue Plasma, route gavage, dose level High, time 3 day
Numbers only, in mg/dL.

Illustrative cases are given below, each with its answer.
1. CC(C)(S)[C@@H](N)C(=O)O: 166
2. O=C(N[C@H](CO)[C@H](O)c1ccc([N+](=O)[O-])cc1)C(Cl)Cl: 168.4
3. CCN1CCCC1CNC(=O)c1cc(S(N)(=O)=O)ccc1OC (centres undefined) [SULPIRIDE]: 174.6

Now for a further molecule.
Report GLC for "O=C(O)c1cccnc1" please.
187.6

---

Hi there, I'd appreciate the recorded TG for every entry that follows.
# Organism: Rattus norvegicus
# MEASUREMENT_DESCRIPTION: Open TG-GATES - Regimen: Daily Repeat
# Format: toxicity, organism-based, Sprague-Dawley
# Set-up: regimen Daily Repeat, gender Male, age 6 weeks
# CONDITION_LABEL: in vivo, po, 100 mg/kg, […], tissue Plasma, route gavage, dose level Low, time 14 day
Numbers only, in mg/dL.

Completed entries (count: 3):
1. O=C(N[C@H](CO)[C@H](O)c1ccc([N+](=O)[O-])cc1)C(Cl)Cl [CHLORAMPHENICOL]: 133
2. CCN1CCCC1CNC(=O)c1cc(S(N)(=O)=O)ccc1OC (centres undefined) [SULPIRIDE]: 149
3. O=C(O)c1cccnc1 [NIACIN]: 150.8

Alright, here's another compound for you.
Quick one: TG of CC(C)(S)[C@@H](N)C(=O)O [PENICILLAMINE] ?
171.6

---

# Species on record: Rattus norvegicus
# MEASUREMENT_DESCRIPTION: Open TG-GATES - Regimen: Daily Repeat
# Format: toxicity, organism-based, Sprague-Dawley
# Parameters: regimen Daily Repeat, gender Male, age 6 weeks
# CONDITION_LABEL: in vivo, po, 0 mg/kg, […], tissue Blood, route gavage, dose level Control, time 7 day
For each of the compounds below, state its Ht.
Answers are plain numbers, in %.

// worked examples, Ht included
1) CN1C(=O)OC(C)(C)C1=O [TRIMETHADIONE]: 41
2) C[C@]12CCC(=O)C=C1CC[C@@H]1[C@@H]2CC[C@@]2(C)[C@H]1CC[C@]2(C)O [METHYLTESTOSTERONE]: 39
3) CCN1CCCC1CNC(=O)c1cc(S(N)(=O)=O)ccc1OC (stereo not given) [SULPIRIDE]: 42
4) C[C@](N)(Cc1ccc(O)c(O)c1)C(=O)O [METHYLDOPA]: 39.4

Parameter requested: Ht. Apply to each item below.
1. CC(=N)S [THIOACETAMIDE]
2. CC(=O)Oc1cc(C(C)C)c(OCCN(C)C)cc1C [MOXISYLYTE]
3. O=C(O)c1cccnc1 [NIACIN]
4. O=C(N[C@H](CO)[C@H](O)c1ccc([N+](=O)[O-])cc1)C(Cl)Cl [CHLORAMPHENICOL]

41.8
39
41.3
42

For every listed record, write down its Ht.
1. CCSCC[C@H](N)C(=O)O [ETHIONINE]
2. CC(C)C(=O)Nc1ccc([N+](=O)[O-])c(C(F)(F)F)c1 [FLUTAMIDE]

[41.2, 40.6]

---

# Species: Rattus norvegicus
# MEASUREMENT_DESCRIPTION: Open TG-GATES - Regimen: Daily Repeat
# Assay type: toxicity, organism-based, Sprague-Dawley
# Design: regimen Daily Repeat, gender Male, age 6 weeks
# CONDITION_LABEL: in vivo, po, 100 mg/kg, […], tissue Plasma, route gavage, dose level Low, time 28 day
QUANTITY_MEASURED: IP (mg/dL)
Numbers only, in mg/dL.

Below, each entry is followed by its recorded IP result.
1. CC(C)(S)[C@@H](N)C(=O)O: 6.2
2. O=C(O)c1cccnc1: 6.5
3. CCN1CCCC1CNC(=O)c1cc(S(N)(=O)=O)ccc1OC (centres undefined) [SULPIRIDE]: 6.4

Form field: reported IP of "O=C(N[C@H](CO)[C@H](O)c1ccc([N+](=O)[O-])cc1)C(Cl)Cl"
6.1
